Give pIC50 for every item shown.
molecular target: hROMK (Homo sapiens (Human), UniProt P48048); experiment: ROMK Manual Patch Clamp Assay; settings: whole-cell manual patch clamp, hROMK current; read-out: ROMK EP IC50
Sequence (P48048 whole entry): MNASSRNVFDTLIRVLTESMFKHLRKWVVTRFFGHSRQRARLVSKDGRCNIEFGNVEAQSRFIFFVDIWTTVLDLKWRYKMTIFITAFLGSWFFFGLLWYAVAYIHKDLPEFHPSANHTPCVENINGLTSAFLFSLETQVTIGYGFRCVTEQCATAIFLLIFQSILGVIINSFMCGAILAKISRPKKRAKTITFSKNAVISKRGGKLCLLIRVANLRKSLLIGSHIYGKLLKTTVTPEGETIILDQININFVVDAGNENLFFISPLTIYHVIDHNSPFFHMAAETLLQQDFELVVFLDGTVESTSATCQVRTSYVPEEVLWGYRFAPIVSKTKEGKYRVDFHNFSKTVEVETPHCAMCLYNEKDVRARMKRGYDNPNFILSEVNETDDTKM
Recall that pIC50 is obtained by taking minus log10 of the concentration measured in molar.

Query: Find pIC50 (hROMK (Homo sapiens (Human), UniProt P48048)) for the entry Cc1cc(-n2cc(CNCC(O)c3ccc4c(c3C3CC3)COC4=O)cn2)ncc1C#N (single isomer, unassigned)
Response: 7.77

Query: Hello, I am looking for reported pIC50 with hROMK (Homo sapiens (Human), UniProt P48048) for Cc1c([C@@H](O)CNCc2cn(-c3ccc4oc(=O)n(C)c4c3)nn2)ccc2c1COC2=O . Could you help?
Response: 7.62

Query: Notebook entry, hROMK (Homo sapiens (Human), UniProt P48048) assay: pIC50 of Cc1c(C(O)CNCc2ccc3c(ccn3-c3ccc4c(c3)COC4=O)c2)ccc2c1COC2=O (centres unmarked) = ?
Response: 7.38

Query: API: value(readout= pIC50, system= hROMK (Homo sapiens (Human), UniProt P48048), query= Cc1c([C@@H](O)CNCc2ccc(-n3cc(C#N)cn3)nc2)ccc2c1COC2=O )
Response: 9.82

Query: Form field: pIC50 recorded for Cc1c([C@@H](O)CNCc2cnc(-n3cc(C#N)c(C(F)F)n3)nc2)ccc2c1COC2=O with hROMK (Homo sapiens (Human), UniProt P48048) (enter value)
Response: 7.70

Query: Lab note: need pIC50 for Cc1nn(-c2ccc(CNC[C@H](O)c3ccc4c(c3C)COC4=O)cn2)cc1C#N on hROMK (Homo sapiens (Human), UniProt P48048), anyone have it?
Response: 8.68

Query: Fill in the recorded pIC50 for this molecule, with hROMK (Homo sapiens (Human), UniProt P48048) as test system: Cc1nc(-n2cc(CNC[C@H](O)c3ccc4c(c3C)COC4=O)cn2)nc(C)c1C#N
Response: 7.15

Query: Lookup: pIC50 / hROMK (Homo sapiens (Human), UniProt P48048) / COc1cc(-n2cc(CNC[C@H](O)c3ccc4c(c3C)COC4=O)nn2)ncc1C#N
Response: 7.74
